# Test system: Fibroblast
# PROTOCOL NOTES: Multiplex assay against human fibroblast
# Assay type: toxicity, cell-based
# REPORTED CONDITIONS: 12 h, 10 µM, compound concentration 10 uM, replicate 1
Label MET when Population Hoechst High Intensity Objects (%) is strictly below 20%; otherwise label NOT MET.

Is Population Hoechst High Intensity Objects (%) strictly under 20% for the entry C=CC(=O)Nc1ccc2ncnc(Nc3ccc(OCc4cccc(F)c4)c(Cl)c3)c2c1.Cc1ccc(S(=O)(=O)O)cc1 ?
MET

Is Population Hoechst High Intensity Objects (%) strictly under 20% for the entry Cl.N#Cc1ccc2[nH]cc(CCCCN3CCN(c4ccc5oc(C(N)=O)cc5c4)CC3)c2c1 [VILAZODONE HYDROCHLORIDE] ?
NOT MET

Is Population Hoechst High Intensity Objects (%) strictly under 20% for the entry CN(C)C(=O)N[C@H]1CC[C@H](CCN2CCN(c3cccc(Cl)c3Cl)CC2)CC1.Cl [CARIPRAZINE HYDROCHLORIDE] ?
MET

Is Population Hoechst High Intensity Objects (%) strictly under 20% for the entry O=C1NCN(c2ccccc2)C12CCN(CCCOc1ccc(F)cc1)CC2 [SPIRAMIDE] ?
MET

Is Population Hoechst High Intensity Objects (%) strictly under 20% for the entry c1cn2cc(-c3ccc4cn[nH]c4c3)nc(Nc3ccc(N4CCOCC4)cc3)c2n1 [ENTOSPLETINIB] ?
NOT MET

Is Population Hoechst High Intensity Objects (%) strictly under 20% for the entry COc1cccc([C@@H](C)NCCCc2ccccc2Cl)c1.Cl [TECALCET HYDROCHLORIDE] ?
MET

Is Population Hoechst High Intensity Objects (%) strictly under 20% for the entry OC1(c2ccc(Cl)cc2)CCN(Cc2c[nH]c3ccccc23)CC1 ?
NOT MET

Is Population Hoechst High Intensity Objects (%) strictly under 20% for the entry CN(C)CC#Cc1ccc(OCCCc2sc(N3CCc4cccc(C(=O)Nc5nc6ccccc6s5)c4C3)nc2C(=O)O)c(F)c1 [A-1155463] ?
MET
